The measurements presented in this section are drawn from patent US20180051316A1.

Entries annotated with measured average KF processing rate k for dNTP incorporation
Target: DNA polymerase I (Klenow Fragment) (Escherichia coli, UniProt P00582, C907S/D355A/E357A/L790C)
Construct: Single copies of the Klenow Fragment (KF) of DNA polymerase I were attached to single-walled carbon nanotube devices; made in house; host or cells: E. coli BL21(DE3)
Sequence (P00582 324-928 D355A/E357A/L790C/C907S): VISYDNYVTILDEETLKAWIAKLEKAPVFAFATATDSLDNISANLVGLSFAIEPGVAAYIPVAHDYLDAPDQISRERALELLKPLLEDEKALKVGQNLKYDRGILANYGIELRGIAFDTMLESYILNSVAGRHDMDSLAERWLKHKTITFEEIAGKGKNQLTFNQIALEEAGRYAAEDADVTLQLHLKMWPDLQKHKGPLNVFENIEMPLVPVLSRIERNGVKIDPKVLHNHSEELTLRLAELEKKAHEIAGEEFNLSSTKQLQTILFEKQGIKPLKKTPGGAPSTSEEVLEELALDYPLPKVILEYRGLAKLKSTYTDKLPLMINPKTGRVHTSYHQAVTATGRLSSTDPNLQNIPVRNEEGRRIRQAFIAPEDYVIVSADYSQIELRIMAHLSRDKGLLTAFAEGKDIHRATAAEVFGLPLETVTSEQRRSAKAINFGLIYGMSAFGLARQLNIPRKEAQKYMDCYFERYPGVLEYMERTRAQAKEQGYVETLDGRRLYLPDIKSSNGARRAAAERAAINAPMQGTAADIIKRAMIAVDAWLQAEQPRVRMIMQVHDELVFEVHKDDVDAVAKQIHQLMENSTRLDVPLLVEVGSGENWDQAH
Assay type: biochemical
Details: complementary homopolymeric template
METRIC NAME: average KF processing rate k for dNTP incorporation (s⁻¹)

COMPOUND: Cc1cn([C@H]2C[C@H](O)[C@@H](COP(=O)(O)OP(=O)(O)OP(=O)(O)O)O2)c(=S)[nH]c1=O [2-thio-dTTP, 2-thio-2′-deoxythimidine-5′-triphosphate]
VALUE OBSERVED: 16

COMPOUND: Nc1nc(Cl)c2ncn([C@H]3C[C@H](O)[C@@H](COP(=O)(O)OP(=O)(O)OP(=O)(O)O)O3)c2n1
VALUE OBSERVED: 20

COMPOUND: Nc1nc2c(ncn2[C@H]2C[C@H](O)[C@@H](COP(O)(=S)OP(=O)(O)OP(=O)(O)O)O2)c(=O)[nH]1 (stereo partly shown)
VALUE OBSERVED: 15

COMPOUND: Nc1ccn([C@H]2C[C@H](O)[C@@H](COP(O)(=S)OP(=O)(O)OP(=O)(O)O)O2)c(=O)n1 (stereo partly shown)
VALUE OBSERVED: 15

COMPOUND: Cc1cn([C@H]2C[C@H](O)[C@@H](COP(O)(=S)OP(=O)(O)OP(=O)(O)O)O2)c(=O)[nH]c1=O (stereo partly shown)
VALUE OBSERVED: 7

COMPOUND: Nc1nc2c(ncn2[C@H]2C[C@H](O)[C@@H](COP(=O)(O)OP(=O)(O)OP(=O)(O)O)O2)c(=O)[nH]1
VALUE OBSERVED: 41

COMPOUND: Nc1ncnc2c1ncn2[C@H]1C[C@H](O)[C@@H](COP(O)(=S)OP(=O)(O)OP(=O)(O)O)O1 (stereo partly shown)
VALUE OBSERVED: 7
